Tested on: HIV-1 (strain: HTLVIIIB)
assay.name: microbe, parasite or virus in culture
Assay type: cell-based
measurement.parameters: Human immunodeficiency virus 1, PBMC, read-out: IC50 value for inhibition of RT activity, peripheral blood mononuclear cells
Recorded IC50, one value per entry.
Supply the numeric figure in nM, leaving out any unit text.

                                   compound  experimental_result
0  COC(=O)C(C)NP(=O)(OC[C@@H]1C=C[C@H](n2cc(C)c(=O)[nH]c2=O)O1)Oc1ccc(Br)cc1 (some centres unmarked)                   42

Now let's try a different one.
State the measured IC50 (HIV-1 (strain: HTLVIIIB)) of Cc1cn([C@H]2C=C[C@@H](CO)O2)c(=O)[nH]c1=O [d4T, 2′,3′-didehydro-2′,3′-dideoxythymidine]
40
